Quick list: OD450 at 10 nM per entry.
Molecular target: T1, human CD19 exon1-3-His tag protein (human, UniProt P15391 20-186, limits assumed)
T1 construct: membrane-distal part of the extracellular region, made in HEK293E cells; not shown: His tag
T1 sequence (looked up): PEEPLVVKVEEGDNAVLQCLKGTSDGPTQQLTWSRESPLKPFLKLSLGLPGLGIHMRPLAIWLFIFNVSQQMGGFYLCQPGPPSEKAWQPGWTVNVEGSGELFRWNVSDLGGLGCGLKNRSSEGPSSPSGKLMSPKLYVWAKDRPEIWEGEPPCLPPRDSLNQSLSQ
Assay: ELISA, coated human CD19 exon 1-3-His

{"columns": ["binder", "unit_of_measure", "OD450 at 10 nM"],
 "data": [
  ["F3.121.4-L1H2 (antibody, mouse IgG1, kappa, V domains shown, humanized antibody of F3.121.4, VL1+VH2, murine IgG1 constant regions) VH: EVQLVQSGAEVKKPGASVKVSCKASGYTFTNYWMHWVRQAPGQGLEWMGEIDPSDNYANYNQEFQGRVTITVDKSASTAYMELSSLRSEDTAVYYCARHDGYFGALDYWGQGTTVTVSS VL: EIVLTQSPATLSLSPGERATLSCSASSSISSNYLHWYQQKPGQAPRFLIYRTSNLASGIPARFSGSGSGTDFTLTISSLEPEDFAVYYCQQASSIPRMFTFGQGTKLEIKR", "OD450", 0.06],
  ["F3.121.4-L1H1 (antibody, mouse IgG1, kappa, V domains shown, humanized antibody of F3.121.4, VL1+VH1, murine IgG1 constant regions) VH: EVQLVQSGAEVKKPGASVKVSCKASGYTFTNYWMHWVRQAPGQRLEWMGEIDPSDNYANYNQEFQGRVTITVDKSASTAYMELSSLRSEDTAVYYCARHDGYFGALDYWGQGTTVTVSS VL: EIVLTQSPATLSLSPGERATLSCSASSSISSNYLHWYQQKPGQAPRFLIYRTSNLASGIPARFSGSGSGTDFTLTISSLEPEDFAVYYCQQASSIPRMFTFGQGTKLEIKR", "OD450", 0.08],
  ["F3.121.4-L2H1 (antibody, mouse IgG1, kappa, V domains shown, humanized antibody of F3.121.4, VL2+VH1, murine IgG1 constant regions) VH: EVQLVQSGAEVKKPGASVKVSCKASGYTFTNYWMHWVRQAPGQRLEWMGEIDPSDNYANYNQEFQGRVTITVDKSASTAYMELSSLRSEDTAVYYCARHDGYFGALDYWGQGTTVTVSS VL: EIVLTQSPDFQSVTPKEKVTITCSASSSISSNYLHWYQQKPDQSPKLLIKRTSNLASGVPSRFSGSGSGTDFTLTINSLEAEDAATYYCQQASSIPRMFTFGQGTKLEIKR", "OD450", 0.05],
  ["F3.121.4-L2H2 (antibody, mouse IgG1, kappa, V domains shown, humanized antibody of F3.121.4, VL2+VH2, murine IgG1 constant regions) VH: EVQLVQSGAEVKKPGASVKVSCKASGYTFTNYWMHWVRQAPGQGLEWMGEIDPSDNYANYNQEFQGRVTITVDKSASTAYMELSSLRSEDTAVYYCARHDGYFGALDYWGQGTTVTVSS VL: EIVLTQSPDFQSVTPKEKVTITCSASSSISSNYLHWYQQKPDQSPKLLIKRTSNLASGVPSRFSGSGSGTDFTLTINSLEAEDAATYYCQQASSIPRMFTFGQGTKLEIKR", "OD450", 0.05]
]}
